Hello, the source for this data is the supplement of paper PMC10567573, in case you need it.

B1: TCEB3B (parent)
chain: STTALGDKQRKANESKGTRESWDS

variants of: B1; experiment: protein stability index of a GFP-peptide fusion (GPS, HEK-293T) (PSI 1-6); higher = more stable; conditions: c terminus: a fixed tail appended;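 note: lentivirally expressed fusions sorted by FACS into six bins by GFP to DsRed ratio, PSI derived from sequencing read proportions per bin multiplied by bin number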
Label criterion not met if protein stability index falls below 4; label criterion met in every other case.

Field: example entries. Status: answers known.
>  <sequenceString>
STTALGDKQRKANESKGTRESWVS [D23V]

>  <labelValue>
criterion not met

$$$$
>  <sequenceString>
STTALGDKQVKANESKGTRESWDS [R10V]

>  <labelValue>
criterion not met

$$$$

Determine whether measured protein stability index meets or exceeds 4 for STTALGDKQRKANESAGTRESWDS [K16A]
criterion met

Determine whether measured protein stability index meets or exceeds 4 for STTALGDKQRKANESKGTRELWDS [S21L]
criterion met

Determine whether measured protein stability index meets or exceeds 4 for STTALGMKQRKANESKGTRESWDS [D7M]
criterion not met

Determine whether measured protein stability index meets or exceeds 4 for STTALGDKQRKANWSKGTRESWDS [E14W]
criterion not met

Determine whether measured protein stability index meets or exceeds 4 for STTALGDKQRKANESKGTRESWES [D23E]
criterion not met
